Biological target: T1, L-selectin on PBMC / lymphocytes (Homo sapiens, UniProt P14151 P14151:39-372)
T1 sequence: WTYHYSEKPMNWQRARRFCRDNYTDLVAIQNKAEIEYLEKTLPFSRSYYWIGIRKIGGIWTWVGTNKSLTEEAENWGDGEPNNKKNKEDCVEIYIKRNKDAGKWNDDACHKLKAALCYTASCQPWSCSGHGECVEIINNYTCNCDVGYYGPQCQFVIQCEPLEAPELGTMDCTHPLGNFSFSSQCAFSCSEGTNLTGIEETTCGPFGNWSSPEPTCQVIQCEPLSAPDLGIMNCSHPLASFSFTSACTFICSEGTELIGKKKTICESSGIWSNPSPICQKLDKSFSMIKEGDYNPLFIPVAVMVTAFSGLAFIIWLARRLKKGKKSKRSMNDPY
Test: flow; half-saturation, monomer
Details: hairpin
Measured Metric: EC50 (nM)
Please give a number only; it is taken to be in nM.

Enquiry: Let me know recorded EC50 for CCAGTACAAGGTGCTAAACGTAATGG (ssDNA) [LD201T4] , thanks.
Return: 20
